Source listed as patent US10239831B2.

- ASSAY_OVERVIEW: log P determination
- Format: physicochemical
- REPORTED_CONDITIONS: HCOOH (acidic)
TEST_READOUT: chromatographic logP
// keep it numeric: no unit symbol after the value

Measured chromatographic logP of "Nc1cc(SSc2cc(N)c(Cl)cc2Cl)c(Cl)cc1Cl" : 5.14

Reported chromatographic logP of "O=[N+]([O-])c1cc(SSc2cc([N+](=O)[O-])c(Cl)cc2Cl)c(Cl)cc1Cl" : 5.69
